target desc: p70S6K (Homo sapiens, UniProt P23443, T412E)
Construct: human p70S6 kinase domain residues 1-421, containing a T412E mutation; made in house
Sequence (P23443 1-421 T412E): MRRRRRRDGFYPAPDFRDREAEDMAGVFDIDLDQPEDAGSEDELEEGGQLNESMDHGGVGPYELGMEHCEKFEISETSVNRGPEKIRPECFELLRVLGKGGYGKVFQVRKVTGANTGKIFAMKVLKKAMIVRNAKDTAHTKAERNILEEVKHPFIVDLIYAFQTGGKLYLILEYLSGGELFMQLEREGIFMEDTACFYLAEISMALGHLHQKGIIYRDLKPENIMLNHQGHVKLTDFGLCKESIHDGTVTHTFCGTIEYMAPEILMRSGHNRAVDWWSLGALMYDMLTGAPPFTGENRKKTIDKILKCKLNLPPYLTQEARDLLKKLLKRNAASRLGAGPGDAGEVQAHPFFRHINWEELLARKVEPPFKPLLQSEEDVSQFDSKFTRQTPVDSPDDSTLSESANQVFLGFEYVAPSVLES
assay protocol: p70S6 Kinase Assay (Luciferase-Coupled Chemiluminescent Kinase assay, LCCA)
Assay type: biochemical
condition description: human p70S6 kinase domain residues 1-421, T412E; 5 μM ATP; read-out: p70S6K IC50
measurement name: IC50

Summary for this molecule, CCOc1nc(N)nc(N[C@@H](C)C(=O)Nc2cc(C(=O)NCCCN3CCN(C)CC3)cc(C(F)(F)F)c2)c1C#N : IC50 is > 2000 nM

Per the records, this molecule ( C[C@H](Nc1nc(N)nc(N)c1C#N)C(=O)Nc1cccc(C(F)(F)F)c1 ) has IC50 equal to > 2000 nM

// recorded IC50 for CSc1nc(N)nc(OC2(C(=O)Nc3cccc(C(F)(F)F)c3)CC2)c1C#N : 500 to 2000 nM

The recorded IC50 for CSc1nc(N)nc(N(C)[C@@H](CCCCNC(=O)OCc2ccccc2)C(=O)Nc2cccc(C(F)(F)F)c2)c1C#N is > 2000 nM

Summary for this molecule, CSc1nc(N)nc(SCC(=O)Nc2cc(C(F)(F)F)ccn2)c1C#N : IC50 is < 50 nM

Record summary for CSc1cc(SCC(=O)Nc2cccc(C(F)(F)F)c2)nc(N)n1 : reported IC50 = 50 to 500 nM
